Test system: COLO 205 colon
procedure-summary: NCI tumour cell line growth inhibition, 48 h
value-kind: TGI

// solved cases for TGI follow
# molecule, endpoint-result
data = [
    ("COC(=O)c1cc(NC(=O)c2cc(NC(=O)c3cc([N+](=O)[O-])n(C)c3)cn2C)cn1C", "> 100 µM"),
    ("OCc1ccc(-c2csc(-c3ccc(CO)o3)c2)o1", "> 56 µM"),
    ("Cc1cc2cc3cc(C)c(N)cc3nc2cc1N", "1.98 µM"),
    ("O=C(Cc1nc2ccc(C(=O)c3ccccc3)cc2[nH]c1=O)C(=O)Nc1nc2ccccc2[nH]1", "> 100 µM"),
    ("COc1ccccc1NC(=S)N=Nc1c(O)[nH]c2ccccc12", "> 100 µM"),
    ("COC(C/C(=C/CO[Si](C(C)C)(C(C)C)C(C)C)C(=O)N(C(=O)OC(C)(C)C)c1ccccc1I)OC", "> 100 µM"),
    ("CCOC(=O)c1nc2ccc(OC)cc2c2c1Cc1ccccc1-2", "> 100 µM"),
    ("Cn1c(-c2ccc(-c3cc(-c4cccs4)c(-c4cccs4)n3C)cc2)cc(-c2cccs2)c1-c1cccs1", "> 100 µM"),
    ("Cc1cc(=O)oc2cc(OCCCOc3ccc4c(C)cc(=O)oc4c3)ccc12", "> 100 µM"),
    ("COc1ccc2c(c1)N(Cc1ccc(Cl)cc1)CCC2N1CCCC1=O (centres undefined)", "20 µM"),
]

Count: 4. Required value per item: TGI.
1. COc1cc(C2c3cc4c(cc3OC(NNc3ccccc3)C2C)OCO4)cc(OC)c1OC (centres undefined)
2. NC1N=Nc2ccccc21 (centres undefined)
3. Clc1ccc(CCNC2(c3cc4ccccc4s3)CCCCC2)cc1Cl
4. CC(=O)O[C@H]1C(=O)[C@@]2(C)[C@H]([C@H](OC(=O)c3ccccc3)[C@]3(O)C[C@H](OC(=O)[C@H](O)[C@@H](NC(=O)c4ccccc4)c4ccc5ccccc5c4)C(C)=C1C3(C)C)[C@]1(OC(C)=O)CO[C@@H]1C[C@@H]2O

[out]
1: 10.3 µM; 2: > 100 µM; 3: 49.2 µM; 4: 0.319 µM

---

System: NCI-H522 lung
procedure-summary: NCI tumour cell line growth inhibition, 48 h
value-kind: TGI

// solved cases for TGI follow
# compound, TGI
data = [
    ("COC1/C=C/C=C(/C)Cc2cc(O)c(Cl)c(c2)N(C)C(=O)CC(OC(=O)C(C)C)C2(C)OC2C(C)C2CC1(O)NC(=O)O2 (centres undefined)", "< 0.01 µM"),
    ("CC(C)(C)COC(=O)C(C)(C)NC(=O)C(CC(=O)OCc1ccccc1)NC(=O)OCc1ccccc1 (centres undefined)", "> 100 µM"),
    ("CCOC(=O)c1nc2ccc(OC)cc2c2c1Cc1ccccc1-2", "> 100 µM"),
    ("CC(C)(C)N/N=C(\\C(=O)Nc1cccc(Cl)c1)C1C(=O)Nc2ccccc2S1=O (centres undefined)", "> 100 µM"),
    ("O=C1/C(=C/c2ccc([N+](=O)[O-])s2)Oc2cc(Cl)ccc21", "0.713 µM"),
]

Count: 4. Required value per item: TGI.
1. O=C1C(=c2ccc(=C3C(=O)c4ccc([N+](=O)[O-])cc4[N+]3=O)cc2)N([O-])c2cc([N+](=O)[O-])ccc21
2. O=C(CCC(=O)Nc1ccc(Cl)c(Cl)c1)CC(=O)c1ccc2ccccc2c1
3. Nc1nc(NCCOCP(=O)(O)O)c([N+](=O)[O-])c(=O)[nH]1
4. CC(c1cc(Cl)ccc1O)c1cc(Cl)ccc1O

[out]
1: > 100 µM; 2: > 100 µM; 3: > 100 µM; 4: 5.24 µM

Count: 2. Required value per item: TGI.
1. N#CC(C#N)=CNCCN1CCN(C=C(C#N)C#N)CC1
2. COC(=O)[C@H](CC(C)C)NC(=O)[C@H](Cc1ccccc1)N1CC2C=CC1C2 (some centres undefined)

[out]
1: > 100 µM; 2: > 100 µM

Count: 3. Required value per item: TGI.
1. CC(C)NC(=O)OCc1c(COC(=O)NC(C)C)c(-c2ccc[n+](COC(=O)Cc3ccccc3)c2)n2c1CCC2
2. COc1cc(OC)cc(Oc2cnc3cc(N)cc(N)c3n2)c1
3. c1coc(-c2nccc3c2[nH]c2ccccc23)c1

[out]
1: 36.2 µM; 2: 37.3 µM; 3: > 100 µM

---

Test system: CAKI-1 renal
procedure-summary: NCI tumour cell line growth inhibition, 48 h
value-kind: TGI

// solved cases for TGI follow
# substance-smiles, endpoint-result
data = [
    ("CC1(C)OC[C@H](C(=N)OCc2ccccc2)O1", "> 100 µM"),
    ("Cn1cnc(N2CCCC2)c(C#N)c1=S", "> 100 µM"),
]

[in] Returns the measured TGI for the input compound. Input: Cc1ccc(C)c2c1C(=O)N(c1ccc(F)cc1F)C2=O
[out] > 100 µM

---

Tested on: UACC-62 melanoma
procedure-summary: NCI tumour cell line growth inhibition, 48 h
value-kind: TGI (µM)
Answers are plain numbers, in µM.

# substance-smiles, scale-unit, TGI
records = [
    ("CN(C)C1CCN(Cc2ccc(NC(=O)c3cncc(C#Cc4cnc(N)c5ncccc45)c3)cc2C(F)(F)F)CC1", "µM", 13.8),
]

Next:
[in] Returns the measured TGI for the input compound. Input: COC(=O)c1ccc2nc(-c3cc4ccccc4n3C)n(CCCCOc3cc4c(cc3OC)C(=O)N3CCC[C@H]3C=N4)c2c1
[out] 0.625

---

Test system: T-47D breast
procedure-summary: NCI tumour cell line growth inhibition, 48 h
value-kind: TGI

// solved cases for TGI follow
# compound, tested-target, TGI
rows = [
    ("COC(=O)Nc1nc2ccc(S(=O)(=O)Nc3ccccn3)cc2[nH]1", "T-47D breast", "> 100 µM"),
    ("COc1cc(-c2cc3ncccc3c3nc(OCCN(C)C)c4cccnc4c23)cc(OC)c1OC", "T-47D breast", "37 µM"),
    ("CC(C)C(Nc1ncnc2nc[nH]c12)C(=O)O (configuration not stated)", "T-47D breast", "> 100 µM"),
    ("CC(=O)OCC1OC(n2cnc3nc(Br)[nH]c(=O)c32)C(OC(C)=O)C1OC(C)=O (configuration not stated)", "T-47D breast", "> 100 µM"),
    ("O=C(/C=C/C12c3ccccc3C(c3ccccc31)C1C(=O)N(c3ccc(Cl)cc3)C(=O)C12)c1ccccn1 (configuration not stated)", "T-47D breast", "4.15 µM"),
]

Count: 2. Required value per item: TGI.
1. COc1cc2c3c(n(CCCN(CCCN(CCCn4c5c(c6ccccc6c4=O)C(=O)c4ccccc4-5)C(=O)OC(C)(C)C)C(=O)OC(C)(C)C)c(=O)c2cc1OC)-c1cc2c(cc1C3=O)OCO2
2. Fc1cc(F)c(F)c(S)c1F

[out]
1: > 100 µM; 2: > 100 µM

---

Tested on: NCI/ADR-RES ovarian
procedure-summary: NCI tumour cell line growth inhibition, 48 h
value-kind: TGI

// solved cases for TGI follow
# molecule, value-kind, endpoint-result
rows = [
    ("CNC(=O)N(CCC#N)CCN(C(=O)NC)c1ccccc1", "TGI", "> 100 µM"),
    ("CC(=O)OCC1OC(N2C(=O)NC(=O)C3C=C4CCCCC4=CC32)CC1OC(C)=O (centres undefined)", "TGI", "> 100 µM"),
]

Count: 2. Required value per item: TGI.
1. Cc1nn(C(=O)c2ccccc2O)c2c1C(c1ccc(O)cc1O)SC(N)=N2 (centres undefined)
2. CC(=O)O[C@H]1C(=O)[C@@]2(C)[C@H]([C@H](OC(=O)c3ccccc3)[C@]3(O)C[C@H](OC(=O)[C@H](O)[C@@H](NC(=O)c4ccccc4)c4ccc5ccccc5c4)C(C)=C1C3(C)C)[C@]1(OC(C)=O)CO[C@@H]1C[C@@H]2O

[out]
9.33 µM
> 50 µM

---

Tested on: HS 578T breast
procedure-summary: NCI tumour cell line growth inhibition, 48 h
Field: TGI. Provide a value for each of the compounds that follow.

// solved cases for TGI follow
# compound, TGI
records = [
    ("CNS(=O)(=O)OCC1OC(n2cnc3cncnc32)C(O)C1O (configuration not stated)", "> 100 µM"),
    ("Cn1c(-c2ccc(-c3cc(-c4cccs4)c(-c4cccs4)n3C)cc2)cc(-c2cccs2)c1-c1cccs1", "> 100 µM"),
    ("O=C(Cn1c(C(=O)c2ccc(Cl)cc2)nc(-c2ccc(Cl)cc2)c1-c1ccc(Cl)cc1)c1ccccc1", "> 100 µM"),
    ("O=P(O)(O)c1ccc(-c2ccc(I)cc2)cc1", "> 100 µM"),
    ("Nn1c(Nc2ccc(S(N)(=O)=O)cc2)nnc(/C=C/c2c(O)ccc3ccccc23)c1=O", "> 100 µM"),
    ("O=[N+]([O-])c1ccc(/C=C/c2nc3ccc(Cl)cc3[nH]2)cc1", "> 100 µM"),
    ("Cc1ccc(Cc2cc(N3CCN(c4cccc(Cl)c4)CC3)nnc2C)cc1", "> 100 µM"),
    ("CC(=O)O[C@H]1C(=O)[C@@]2(C)[C@H]([C@H](OC(=O)c3ccccc3)[C@]3(O)C[C@H](OC(=O)[C@H](O)[C@@H](NC(=O)c4ccccc4)c4ccc5ccccc5c4)C(C)=C1C3(C)C)[C@]1(OC(C)=O)CO[C@@H]1C[C@@H]2O", "0.148 µM"),
    ("COC(=O)C1=COC2OC3C(C(C)O)C(=O)OC34C=CC1C24 (configuration not stated)", "> 100 µM"),
    ("CC(C)(C)NC1=NC(C(F)(F)F)(C(F)(F)F)NC(=O)N1", "> 100 µM"),
]

Count: 8. Required value per item: TGI.
1. Cc1ccc(-c2nc3nc(-c4ccc(F)cc4)nc(N4CCNCC4)c3o2)cc1
2. Oc1c(CN2CCCC2)ccc2cccnc12
3. COc1ccc2c(c1)N(Cc1ccc(Cl)cc1)CCC2N1CCCC1=O (configuration not stated)
4. ClCCCSSCCCCl
5. Cc1ccccc1C1=C(c2cn(C)c3ccccc23)C(=O)NC1=O
6. COC(C/C(=C/CO[Si](C(C)C)(C(C)C)C(C)C)C(=O)N(C(=O)OC(C)(C)C)c1ccccc1I)OC
7. Clc1ccc(CCNC2(c3cc4ccccc4s3)CCCCC2)cc1Cl
8. O=c1[nH]c2ccccc2c(O)c1Cc1ccccc1

[out]
5.12 µM
> 100 µM
26.5 µM
64.9 µM
> 25 µM
> 100 µM
> 100 µM
> 100 µM

Count: 4. Required value per item: TGI.
1. CC(=O)OCC1OC(n2cnc3nc(Br)[nH]c(=O)c32)C(OC(C)=O)C1OC(C)=O (configuration not stated)
2. COc1ccc2nc3c([N+](=O)[O-])ccc(NCCN(C)C)c3c(N)c2c1
3. O=C(O)CCCCn1ccc(=O)[nH]c1=O
4. CC(C)(C)COC(=O)C(C)(C)NC(=O)C(CC(=O)OCc1ccccc1)NC(=O)OCc1ccccc1 (configuration not stated)

[out]
["> 100 µM", "4.5 µM", "> 100 µM", "> 100 µM"]

Count: 4. Required value per item: TGI.
1. O=C(CCCn1c2c(sc3ccccc32)c(=O)n2nnc(-c3ccccc3)c12)NCCc1cnc[nH]1
2. COC(=O)C12CCC(C)(C)CC1C1=CCC3C4(C)CC(O)C(O)C(C)(C(=O)OC)C4CCC3(C)C1(CO)CC2 (configuration not stated)
3. O=C(NC(=S)Nc1ccc([N+](=O)[O-])cc1)c1ccc2c(c1)Sc1ccccc1O2
4. COC(=O)CNC(=O)C(Cc1ccccc1)NC(=O)c1ccc(-c2ccc(Cl)cc2Cl)o1 (configuration not stated)

[out]
1: 2.19 µM; 2: 28.2 µM; 3: 79 µM; 4: 52.1 µM

Count: 2. Required value per item: TGI.
1. O=C(c1ccccc1)N1CCN(C(=S)NC2CCCCC2)C1=S
2. COc1cc2c(NCCCCCO)ncnc2c(OC)c1OC

[out]
1. 50.3 µM
2. > 100 µM
